# target-or-system: human NTCP (Homo sapiens, UniProt Q14973)
# Sequence (Q14973 whole entry): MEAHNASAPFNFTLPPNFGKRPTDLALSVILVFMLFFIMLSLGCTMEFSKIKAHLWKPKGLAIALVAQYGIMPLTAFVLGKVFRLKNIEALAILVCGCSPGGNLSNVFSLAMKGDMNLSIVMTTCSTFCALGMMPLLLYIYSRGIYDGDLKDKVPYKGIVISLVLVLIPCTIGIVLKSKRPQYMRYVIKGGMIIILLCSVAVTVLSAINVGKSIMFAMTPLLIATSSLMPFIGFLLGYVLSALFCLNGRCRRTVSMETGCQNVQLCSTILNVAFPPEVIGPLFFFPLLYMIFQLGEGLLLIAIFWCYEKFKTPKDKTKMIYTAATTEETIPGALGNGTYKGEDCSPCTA
# assay-details: Taurocholate uptake inhibition studies in U2OS-HA-hNTCP cells
# Type: cell-based
# Set-up: HA; expressed in transfected cells
# experimental-setup: increasing drug concentrations
experimental-endpoint: Taurocholate uptake into U2OS-HA-hNTCP cells (in words)

Nc1c2c(nc3ccccc13)CCCC2O.O=C(O)/C=C\C(=O)O (centres unmarked) [Hydroxytacrine Maleate] ... not
COc1cc(-c2ccc(N=Nc3ccc4c(S(=O)(=O)[O-])cc(S(=O)(=O)[O-])c(N)c4c3O)c(OC)c2)ccc1N=Nc1ccc2c(S(=O)(=O)[O-])cc(S(=O)(=O)[O-])c(N)c2c1O.[Na+].[Na+].[Na+].[Na+] ... reduced
COc1cc(C(=O)NS(=O)(=O)c2ccccc2C)ccc1Cc1cn(C)c2ccc(NC(=O)OC3CCCC3)cc12 ... reduced
O=C(O)c1cc(/N=N/c2ccc(S(=O)(=O)Nc3ccccn3)cc2)ccc1O ... reduced

###

# target-or-system: human NTCP (Homo sapiens)
# assay-details: Screening fluorescent competitive Myrcludex B-FITC binding assay (96-well, 10 µM drug)
# experimental-setup: Prestwick library screen, Myrcludex B-FITC binding, 10 µM drug
Structures can show the parent of a compound that is named as a salt.
Please assign a class to every record based on measured B-score binding assay, with ranges I: < 0.2; II: ≥ 0.2 and < 1; III: ≥ 1

Cc1cn[nH]c1 [Fomepizole] ... I
Cc1cc(N)c2ccccc2[n+]1CCCCCCCCCC[n+]1c(C)cc(N)c2ccccc21 [Dequalinium dichloride] ... III
CCn1cc(C(=O)O)c(=O)c2cc3c(cc21)OCO3 ... III
CC1CC(OC(=O)c2ccccc2O)CC(C)(C)C1 (stereo not drawn) [Homosalate] ... I
CCOc1nc2cccc(C(=O)O)c2n1Cc1ccc(-c2ccccc2-c2nnn[nH]2)cc1 ... I
Nc1c2c(nc3ccccc13)CCCC2 [Tacrine hydrochloride] ... II
Cc1ccccc1OCC(O)CO (stereo not drawn) ... III
CC(O)(P(=O)([O-])O)P(=O)([O-])O.[Na+].[Na+] [Etidronic acid, disodium salt] ... II
COc1ccc2c3c1O[C@H]1C[C@@H](O)C=C[C@@]31CCN(C)C2 [Galanthamine hydrobromide] ... II

###

# target-or-system: human NTCP (Homo sapiens, UniProt Q14973)
# assay-details: Screening taurocholate uptake assay (96-well, [14C]taurocholate, 10 µM drug)
# experimental-setup: ranking score beside the functional and binding assay B-scores of the screen
Structures can show the parent of a compound that is named as a salt.
experimental-endpoint: Ranking score

COc1cccc2c1C(=O)c1c(O)c3c(c(O)c1C2=O)C[C@@](O)(C(C)=O)C[C@@H]3O[C@H]1C[C@H](N)[C@H](O)[C@H](C)O1 [Daunorubicin hydrochloride] ... 740.439
CCCCN(CCCC)CCCOC(=O)c1ccc(N)cc1 [Butacaine] ... 672.37
C[C@H](N[C@@H](CCc1ccccc1)C(=O)O)C(=O)N1CCC[C@H]1C(=O)O.O.O [Enalaprilat dihydrate] ... 844.248
CC/C(=C(\c1ccccc1)c1ccc(OCCN(C)C)cc1)c1ccccc1 [Tamoxifen citrate] ... 732.268
COc1ccc2c(c1)c(CC(=O)OCC(=O)O)c(C)n2C(=O)c1ccc(Cl)cc1 [Acemetacin] ... 813.791
Cc1noc(NS(=O)(=O)c2ccc(N)cc2)c1C [Sulfisoxazole] ... 663.513
CC(=O)OC[C@H]1O[C@@H]([S-])[C@H](OC(C)=O)[C@@H](OC(C)=O)[C@@H]1OC(C)=O.CCP(CC)CC.[Au+] [Auranofin] ... 748.559
CC(=O)OCC(=O)[C@@]1(O)CC[C@H]2[C@@H]3CCC4=CC(=O)CC[C@]4(C)[C@H]3[C@@H](O)C[C@@]21C [Cortisol acetate] ... 752.137
CC(O)(P(=O)([O-])O)P(=O)([O-])O.[Na+].[Na+] [Etidronic acid, disodium salt] ... 776.081
COc1ccc(OC)c(C(O)CNC(=O)CN)c1 (stereo not shown) [Midodrine hydrochloride] ... 735.356
CCN1CCCC1CNC(=O)c1cc(S(N)(=O)=O)ccc1OC (stereo not shown) [Sulpiride] ... 822.943
C#CCN[C@@H]1CCc2ccccc21 [Rasagiline] ... 667.796
COCCCOc1ccnc(C[S+]([O-])c2nc3ccccc3[nH]2)c1C (stereo not shown) [Rabeprazole Sodium salt] ... 764.457
Nc1nc(F)nc2c1ncn2[C@@H]1O[C@H](CO)[C@@H](O)[C@@H]1O [Fludarabine] ... 822.35
CC[C@@]1(O)C(=O)OCc2c1cc1n(c2=O)Cc2cc3c(CN(C)C)c(O)ccc3nc2-1 [Topotecan] ... 819.148
C[C@@H]1CC[C@H]2[C@@H](C)C(=O)O[C@@H]3O[C@@]4(C)CC[C@@H]1[C@]32OO4 [Artemisinin] ... 655.672
